# Organism: Rattus norvegicus
# experiment_notes: DrugMatrix - Regimen: Daily Repeat
# Assay type: toxicity, organism-based, Sprague-Dawley
# Parameters: regimen Daily Repeat, gender Male, age 6-8 weeks
# condition_info: in vivo, iv, 0 mg/kg, 120 h, tissue Plasma, dose level Control, time 5 day, vehicle 100 % SALINE
Starred links: 1 amine or outer side, 2 acyl side, 3 side chain; linkers in the order of their positions; H or OH if unused. Positions of bridges follow the written chain, without caps; N, C: chain ends. Non-standard residues stand in square brackets, D forms with d. Residues, ends and D or L forms follow the SMILES beside them. Chains are numbered I, II in the order given. Actinocin(9to1) = Cc1c2oc3c(C)ccc(C(=O)[*:1])c3nc-2c(C(=O)[*:2])c(N)c1=O; NMeV = CN[C@H](C(=O)O)C(C)C; Sar = CNCC(=O)O
property: TOTAL PROTEIN (G/DL)
State the answer as a number, implicitly in G/DL.

Requested read-out: TOTAL PROTEIN. Entry: COc1cc2c3cc1Oc1cc(ccc1O)C[C@@H]1c4c(cc(OC)c(O)c4Oc4ccc(cc4)C[C@@H]3N(C)CC2)CC[N+]1(C)C.[Cl-]
5.73

Requested read-out: TOTAL PROTEIN. Entry: CC[C@]1(O)C[C@H]2CN(CCc3c([nH]c4ccccc34)[C@@](C(=O)OC)(c3cc4c(cc3OC)N(C=O)[C@H]3[C@@](O)(C(=O)OC)[C@H](OC(C)=O)[C@]5(CC)C=CCN6CC[C@]43[C@@H]65)C2)C1 [VINCRISTINE]
5.98

Requested read-out: TOTAL PROTEIN. Entry: Cc1c2oc3c(C)ccc(C(=O)N[C@@H]4C(=O)N[C@H](C(C)C)C(=O)N5CCC[C@H]5C(=O)N(C)CC(=O)N(C)[C@@H](C(C)C)C(=O)O[C@@H]4C)c3nc-2c(C(=O)N[C@@H]2C(=O)N[C@H](C(C)C)C(=O)N3CCC[C@H]3C(=O)N(C)CC(=O)N(C)[C@@H](C(C)C)C(=O)O[C@@H]2C)c(N)c1=O [DACTINOMYCIN] (I: T[dV]P[Sar][NMeV] / II: T[dV]P[Sar][NMeV]; ester I:1-I:C, II:1-II:C; linker I:N-II:N via Actinocin(9to1))
5.85

Requested read-out: TOTAL PROTEIN. Entry: Cc1ccc(N(CC2=NCCN2)c2cccc(O)c2)cc1 [PHENTOLAMINE]
6.17
